test system: Key Grass and Sedge Weeds as well as Grass Crops; test: Post-emergent Test II herbicidal activity (Table 6); format: in vivo; conditions: Triticum aestivum, post-emergence, 336 h, TRZSS (wheat), application rate 140 g ai/ha, read-out: Visual Growth Reduction (%) 14 Days After Application, TRZSS
Reported pest or weed control at 140 g/ha by item:

Nc1cc(-c2ccc(I)cc2F)nc(C(=O)O)c1Cl [Compound 124]; 60 to 74%

Measured pest or weed control at 140 g/ha for this entry Nc1c(Cl)c(C(=O)O)nc(-c2ccc(I)c(F)c2)c1Cl [Compound 145] on Key Grass and Sedge Weeds as well as Grass Crops: 60 to 74%

Measured pest or weed control at 140 g/ha for this entry COC(=O)c1nc(-c2ccc(OC(F)(F)F)cc2)c(Cl)c(N)c1Cl [Compound 170] on Key Grass and Sedge Weeds as well as Grass Crops: 0 to 29%

Measured pest or weed control at 140 g/ha for this entry Nc1c(Cl)c(C(=O)O)nc(-c2ccc(OC(F)F)cc2)c1Cl [Compound 33] on Key Grass and Sedge Weeds as well as Grass Crops: 0 to 29%

* * *

Reported pest or weed control at 70 g/ha by item:
system: Key Grass and Sedge Weeds as well as Grass Crops; test: Post-emergent Test II herbicidal activity (Table 6); format: in vivo; details: post-emergence, 336 h, ZEAMX: maize, corn (Zea mays), application rate 70 g ai/ha, read-out: Visual Growth Reduction (%) 14 Days After Application, ZEAMX

// solved cases for pest or weed control at 70 g/ha follow
Nc1c(F)c(-c2cc(F)c(C(F)F)cc2F)nc(C(=O)O)c1Cl; 0 to 29%
COC(=O)c1nc(-c2ccc(C(N)=O)cc2)c(F)c(N)c1Cl; 0 to 29%

The compound identified as Nc1cc(-c2ccc(I)c(F)c2)nc(C(=O)O)c1Cl registered its pest or weed control at 70 g/ha at 0 to 29%

The compound identified as C#Cc1ccc(-c2nc(C(=O)OC)c(C=C)c(N)c2F)cc1 registered its pest or weed control at 70 g/ha at 0 to 29%

* * *

Reported pest or weed control at 70 g/ha by item:
test system: Key Grass and Sedge Weeds as well as Grass Crops; assay: Post-emergent Test II herbicidal activity (Table 6); assay type: in vivo; conditions: post-emergence, 336 h, ZEAMX: maize, corn (Zea mays), application rate 70 g ai/ha, read-out: Visual Growth Reduction (%) 14 Days After Application, ZEAMX

COC(=O)c1nc(-c2cc(F)c(C)cc2F)nc(N)c1OC [Compound 185]; 0 to 29%
COc1c(N)nc(-c2ccc(Br)c(F)c2)nc1C(=O)O [Compound 113]; 85 to 94%
COC(=O)c1nc(-c2ccc(Br)c(F)c2)c(Cl)c(N)c1Cl [Compound 73]; 60 to 74%
Cc1c(-c2ccc(OC(F)F)cc2)nc(C(=O)O)c(Cl)c1N [Compound 94]; 0 to 29%
C=Cc1c(C(=O)OC)nc(-c2ccc(C#N)cc2)c(F)c1N [Compound 107]; 0 to 29%

In the following, a different compound is considered.
Measured pest or weed control at 70 g/ha for this entry C=Cc1c(N)nc(-c2ccc(F)c(F)c2F)nc1C(=O)O [Compound 191] on Key Grass and Sedge Weeds as well as Grass Crops: 45 to 59%

* * *

Reported pest or weed control at 70 g/ha by item:
test system: Key Grass and Sedge Weeds as well as Grass Crops; test: Post-emergent Test II herbicidal activity (Table 6); type: in vivo; details: post-emergence, 336 h, ZEAMX: maize, corn (Zea mays), application rate 70 g ai/ha, read-out: Visual Growth Reduction (%) 14 Days After Application, ZEAMX

// solved cases for pest or weed control at 70 g/ha follow
Cc1cc(F)c(-c2cc(N)c(Cl)c(C(=O)O)n2)cc1F; 0 to 29%
COC(=O)c1nc(-c2cc(F)c(I)cc2F)nc(N)c1OC; 60 to 74%

In the following, a different compound is considered.
The compound identified as Nc1cc(-c2c(F)cc(I)c(F)c2F)nc(C(=O)O)c1Cl registered its pest or weed control at 70 g/ha at 0 to 29%
